# System: SNB-19 CNS
# test-method-notes: NCI tumour cell line growth inhibition, 48 h
Provide the reported TGI of each item.

Task: // returns reported TGI for input CC1(C)Oc2ccc(NC(=O)CCC(N)C(=O)O)cc2O1 (centres undefined)
Result: > 100 µM

Task: // returns reported TGI for input COc1ccc2c(c1)/c(=C/c1ccc(N(C)C)cc1)c1cc(-c3ccccc3)[n+](C)n12
Result: 1.21 µM

Task: // returns reported TGI for input COC(=O)CCCCCN=Cc1c(O)c(O)c(C(C)C)c2cc(C)c(-c3c(C)cc4c(C(C)C)c(O)c(O)c(C=NCCCCCC(=O)OC)c4c3O)c(O)c12
Result: > 32.5 µM

Task: // returns reported TGI for input CC(=O)OC1[C@H]2c3cc4c(cc3CN3CCC(=C[C@@H]1O)C23)OCO4 (some centres undefined)
Result: > 100 µM

Task: // returns reported TGI for input CC1(C)C2CCC3(C2)CS(=O)(=O)N2OC231 (centres undefined)
Result: > 100 µM

Task: // returns reported TGI for input O=C(O)CSc1ncccc1[N+](=O)[O-]
Result: > 100 µM

Task: // returns reported TGI for input CC(=O)Oc1ccc(C2COc3cc(OC(C)=O)c(OC(C)=O)cc3C2)cc1 (centres undefined)
Result: > 100 µM

Task: // returns reported TGI for input COC(=O)[C@@H]1C[C@@]2(C3C=CN(C(=O)C(F)(F)F)C=C3)c3ccccc3N(C(=O)C(F)(F)F)[C@H]2N1C(=O)OC
Result: > 100 µM

Task: // returns reported TGI for input CCOC(=O)C(=O)Nc1c(C(C)C)cccc1C(C)C
Result: > 100 µM

Task: // returns reported TGI for input COC(=O)C1=C(CS(=O)c2ccccc2[N+](=O)[O-])ON(C)C1c1ccccc1 (centres undefined)
Result: > 100 µM

Task: // returns reported TGI for input O=Cc1ccc(-c2cccs2)s1
Result: > 100 µM

Task: // returns reported TGI for input CSc1ccc(/C=C2\C=C(CC(=O)NCc3ccc(C(=O)c4ccccc4)cc3)c3cc(F)ccc32)cc1
Result: > 100 µM

Task: // returns reported TGI for input CCN(CC)c1ccc2c(c1)Nc1cc(=C(C#N)C#N)c3ccccc3c1=N2
Result: > 100 µM

Task: // returns reported TGI for input CC(C)(C)OC[C@H](O)CC#N
Result: > 100 µM

Task: // returns reported TGI for input COc1ccc(C2C(C#N)=C(S)N(C3OC(CO)C(O)C(O)C3O)C(c3ccccc3)=C2C(C)=O)cc1 (centres undefined)
Result: > 100 µM

Task: // returns reported TGI for input Cn1nc(S(N)(=O)=O)s/c1=N/C(N)=S
Result: > 100 µM

Task: // returns reported TGI for input C[C@]12CC[C@@H]3c4ccc(O)cc4C(O)C[C@H]3[C@@H]1CCC2=O (some centres undefined)
Result: > 100 µM

Task: // returns reported TGI for input COc1cc(S(=O)(=O)Nc2ccc(C3=NNC(c4ccccc4)C3)cc2)ccc1F (centres undefined)
Result: > 100 µM

Task: // returns reported TGI for input c1ccc2c(Cc3nnc4sc(SSc5nn6c(Cc7c[nH]c8ccccc78)nnc6s5)nn34)c[nH]c2c1
Result: > 100 µM

Task: // returns reported TGI for input C[N+]1(C)C/C(=C\c2ccncc2)C(=O)/C(=C/c2ccncc2)C1
Result: > 100 µM

Task: // returns reported TGI for input Cc1ccc(N=Nc2c(C)c(C#N)c(=S)n(C3OC(CO)C(O)C(O)C3O)c2-c2ccccc2)cc1 (centres undefined)
Result: 48.1 µM

Task: // returns reported TGI for input Cc1ccc2c(c1)C(c1cccc3ccccc13)OC2=O (centres undefined)
Result: > 100 µM

Task: // returns reported TGI for input COc1ccc(CN2c3ccccc3CCc3ccccc32)cc1F
Result: > 100 µM

Task: // returns reported TGI for input Nc1nc(CCC(=O)Nc2cccc(C(F)(F)F)c2)cc(-c2ccc3ccccc3c2)n1
Result: > 100 µM

Task: // returns reported TGI for input O=[N+]([O-])c1nccn1COCCBr
Result: > 100 µM

Task: // returns reported TGI for input CCC(c1cccc(O)c1)C(CC)c1cccc(O)c1 (centres undefined)
Result: 26 µM

Task: // returns reported TGI for input CN=C1SC(=Nc2ccc(N(C)C)cc2)N1C
Result: > 100 µM

Task: // returns reported TGI for input O=C1NC2(CN3CCC2CC3)C(=O)N1CN(Cc1ccccc1)c1ccccc1 (centres undefined)
Result: > 100 µM

Task: // returns reported TGI for input Cc1c2ccc(N(C)c3ccnc(Nc4cccc(S(N)(=O)=O)c4)n3)cc2nn1C
Result: > 25 µM

---

Provide the reported TGI of each item.
# System: RXF 393 renal
# test-method-notes: NCI tumour cell line growth inhibition, 48 h

Task: // returns reported TGI for input CCOc1cc(C2CC(c3ccc(NS(=O)(=O)c4cc([N+](=O)[O-])ccc4C)cc3)=NN2)ccc1O (configuration not stated)
Result: 40.4 µM

Task: // returns reported TGI for input c1nnc(NCNc2nncs2)s1
Result: > 100 µM

Task: // returns reported TGI for input C=C1C(=O)O[C@H]2C[C@@]3(C)[C@H](O)CCC(=C)[C@@H]3[C@@H](OC(C)=O)[C@H]12
Result: 14.7 µM

Task: // returns reported TGI for input Cc1ccc(S(=O)(=O)c2c(O)c3ccccc3n(C)c2=O)cc1
Result: > 100 µM

Task: // returns reported TGI for input O=C([CH-]C(=O)C(F)(F)F)c1ccccc1.O=C([CH-]C(=O)C(F)(F)F)c1ccccc1.O=C([CH-]C(=O)C(F)(F)F)c1ccccc1.O=C([CH-]C(=O)C(F)(F)F)c1ccccc1.[Eu+3].c1ccncc1
Result: 18.8 µM

Task: // returns reported TGI for input COc1cc(Cn2c(-c3nonc3N)nc3ccccc32)ccc1C
Result: 3.35 µM

Task: // returns reported TGI for input O=C(O)CSc1ncccc1[N+](=O)[O-]
Result: > 100 µM

Task: // returns reported TGI for input CCCCOCn1c(=O)[nH]c(=O)c2cc(Br)ccc21
Result: > 100 µM

Task: // returns reported TGI for input Cc1cc(=O)oc2cc(O)c(CN(C)CC(=O)O)cc12
Result: > 100 µM

Task: // returns reported TGI for input COc1ccc(C(=O)N2c3ccccc3Sc3ccccc32)c(C(F)(F)F)c1
Result: > 100 µM

Task: // returns reported TGI for input C=C=C(C(=O)OC)S(=O)c1ccc([N+](=O)[O-])cc1[N+](=O)[O-] (configuration not stated)
Result: > 68 µM

Task: // returns reported TGI for input O=C1/C(=C2\Sc3c(ccc(Cl)c3Cl)C2=O)Sc2c1ccc(Cl)c2Cl
Result: > 100 µM

Task: // returns reported TGI for input N.N.N.N.N.N.O=N[O-].[Br-].[Co+3].[Co+3].[OH3+].[OH3+]
Result: > 100 µM

Task: // returns reported TGI for input O=C(N[C@H]1c2ccsc2/C(=N/O)[C@H]1O)C(F)(F)F
Result: > 100 µM

Task: // returns reported TGI for input CC1CCN(CC(=O)N2c3ccccc3Sc3cc4ccccc4cc32)CC1
Result: > 100 µM

Task: // returns reported TGI for input CC(=O)Oc1ccc(C2COc3cc(OC(C)=O)c(OC(C)=O)cc3C2)cc1 (configuration not stated)
Result: 23.8 µM

Task: // returns reported TGI for input O=C1CCC(O)=C1O
Result: > 100 µM

---

Provide the reported TGI of each item.
# Test system: K-562 leukemia
# test-method-notes: NCI tumour cell line growth inhibition, 48 h

Task: // returns reported TGI for input FCc1ncc(-c2ccc(C(F)(F)F)cc2)c(NC2CCCCCC2)n1
Result: > 10 µM

Task: // returns reported TGI for input Cn1cc(CNCC2CCN(c3ncc(C(=O)NO)cn3)CC2)c2ccccc21
Result: > 46.9 µM

Task: // returns reported TGI for input O=Cc1ccc(-c2cccs2)s1
Result: 46.4 µM

---

# System: 786-0 renal
# test-method-notes: NCI tumour cell line growth inhibition, 48 h
Provide the reported log10 of TGI of each item.
Scale type: logarithmic (base 10). Underlying TGI unit: µM.

Task: // returns reported log10 of TGI for input CCOc1c(Cl)cc(CNC(C)C(O)c2ccccc2)cc1OC (stereo unspecified)
Result: 1.59

Task: // returns reported log10 of TGI for input COc1ccc(Cl)cc1Nc1nc(C(F)(F)F)ccc1C(=O)N/N=C/c1cc(OC)c(OC)c(OC)c1
Result: 0.57

Task: // returns reported log10 of TGI for input O=C1CC(=O)OC(c2ccc([N+](=O)[O-])cc2)O1
Result: 0.53

Task: // returns reported log10 of TGI for input COc1cc2nc(-c3ccc(C(F)(F)F)cc3)cc(OCCCN3CCCCC3)c2cc1OC
Result: 0.82

Task: // returns reported log10 of TGI for input COc1ccc2c(c1)/c(=C/c1ccc(N(C)C)cc1)c1cc(-c3ccccc3)[n+](C)n12
Result: 0.20
